- assayConditions: 293.15 K; 101.33 kPa; Liquid; Vibrating tube method
Numbers after ± are expanded uncertainties.
observable: mass density

Consider the reported mass density for these compounds:
{"compound": "C1CCOC1 [tetrahydrofuran]", "mass density": "888.73 ± 0.14 kg/m3"}
{"compound": "CCNC=O [N-ethylformamide]", "mass density": "951.59 ± 0.24 kg/m3"}
{"compound": "CCC(C)=O", "mass density": "808.64 ± 0.16 kg/m3"}

Enquiry: Tell me the measured mass density of CCOC(C)=O [ethyl acetate] , please.
Return: 900.26 ± 0.15 kg/m3

----------
- assayConditions: 308.15 K; 101.33 kPa; Liquid; Vibrating tube method
observable: mass density (kg/m3)
Give bare numbers, in kg/m3.

{"molecule": "C1CCOC1 [tetrahydrofuran]", "observable": "mass density", "measuredResult": 872.02}

Each molecule below has a recorded value; state its mass density.
1. CCOC(C)=O [ethyl acetate]
2. CCC(C)=O
3. CCNC=O [N-ethylformamide]

Return:
881.52
792.45
939.04

----------
- assayConditions: 303.15 K; 101.33 kPa; Liquid; Vibrating tube method
Numbers after ± are expanded uncertainties.
observable: mass density
Please make sure the unit comes right after the number.

Worked cases, mass density given:
{"compound": "CCNC=O [N-ethylformamide]", "measuredResult": "943.29 ± 0.24 kg/m3"}
{"compound": "CCOC(C)=O [ethyl acetate]", "measuredResult": "887.85 ± 0.15 kg/m3"}
{"compound": "CCC(C)=O", "measuredResult": "797.88 ± 0.17 kg/m3"}

Enquiry: Would you mind telling me what mass density value was observed for C1CCOC1 [tetrahydrofuran] ?
Return: 877.6 ± 0.15 kg/m3

----------
- assayConditions: 298.15 K; 101.33 kPa; Liquid; Vibrating tube method
observable: mass density (kg/m3)
Numbers only, in kg/m3.

These solved cases illustrate the format of a correct answer.
{"compound": "C1CCOC1 [tetrahydrofuran]", "mass density / kg/m3": 883.24}
{"compound": "CCNC=O [N-ethylformamide]", "mass density / kg/m3": 947.48}
{"compound": "CCC(C)=O", "mass density / kg/m3": 803.24}

Please turn your attention to the following entry.
Enquiry: # lookup: mass density of CCOC(C)=O [ethyl acetate]
Return: 894.14

----------
Record form. Attribute: mass density. Fill in for each entry.
- assayConditions: 313.15 K; 101.33 kPa; Liquid; Vibrating tube method
One number for each entry, in kg/m3.

Below are worked cases with known answers.
{"compound": "CCC(C)=O", "mass density [kg/m3]": 786.94}
{"compound": "C1CCOC1 [tetrahydrofuran]", "mass density [kg/m3]": 866.23}
{"compound": "CCNC=O [N-ethylformamide]", "mass density [kg/m3]": 934.78}

Enquiry: Record request: mass density value, item CCOC(C)=O [ethyl acetate]
Return: 875.14
